Below is a list of entries, each paired with its recorded Kd value.
# assay.target: T1, EsCas13d, nuclease-dead (Eubacterium siraeum, UniProt B0MS50, R295A;H300A;R849A;H854A)
# T1 sequence: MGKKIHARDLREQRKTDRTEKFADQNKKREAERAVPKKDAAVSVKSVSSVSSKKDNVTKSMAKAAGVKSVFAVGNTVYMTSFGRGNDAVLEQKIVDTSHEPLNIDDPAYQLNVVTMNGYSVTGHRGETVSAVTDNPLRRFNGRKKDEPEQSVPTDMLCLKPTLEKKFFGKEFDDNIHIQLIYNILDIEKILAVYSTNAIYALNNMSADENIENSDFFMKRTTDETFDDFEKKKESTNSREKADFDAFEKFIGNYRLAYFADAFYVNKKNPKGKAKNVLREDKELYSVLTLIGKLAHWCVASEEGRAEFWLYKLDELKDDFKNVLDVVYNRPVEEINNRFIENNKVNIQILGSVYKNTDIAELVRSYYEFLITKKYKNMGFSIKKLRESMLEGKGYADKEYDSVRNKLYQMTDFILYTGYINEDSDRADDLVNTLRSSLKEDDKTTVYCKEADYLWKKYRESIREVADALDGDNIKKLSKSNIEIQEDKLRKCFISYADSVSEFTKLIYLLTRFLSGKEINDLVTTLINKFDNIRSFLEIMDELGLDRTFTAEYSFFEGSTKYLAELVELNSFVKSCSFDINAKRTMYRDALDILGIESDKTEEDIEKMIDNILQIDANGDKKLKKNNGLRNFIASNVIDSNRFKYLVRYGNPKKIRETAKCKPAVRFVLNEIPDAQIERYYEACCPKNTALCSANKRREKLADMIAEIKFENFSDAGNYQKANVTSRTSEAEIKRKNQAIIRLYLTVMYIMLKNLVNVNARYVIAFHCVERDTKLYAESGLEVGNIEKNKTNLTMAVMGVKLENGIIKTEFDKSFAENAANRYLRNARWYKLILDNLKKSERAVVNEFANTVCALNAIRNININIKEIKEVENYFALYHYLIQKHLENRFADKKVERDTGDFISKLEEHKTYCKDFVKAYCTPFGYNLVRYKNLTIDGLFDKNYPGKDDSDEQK
# procedure.summary: crRNA (strand 1, pre-loaded); Mg2+; 40 mM Tris-HCl pH 7.5, 150 mM NaCl, 6 mM MgCl2, 1 mM DTT, 0.1% Tween-20, 0.2 mg/ml BSA; 25 C; 10 min per concentration, then washed
# test.context: tags: His6-TwinStrep-SUMO cleaved; N-terminal SNAP kept (SNAP-Surface 488); label: 3' end held by stalled T7 RNA polymerase
Report as a plain number; the unit nM is understood.

# Kd lookup, item target 1 insA 3' of 21,insG 3' of 7 (mixed) RNA 1: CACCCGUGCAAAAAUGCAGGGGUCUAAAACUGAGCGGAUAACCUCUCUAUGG RNA 2: GGGAAUGGAUCCACAUCUACGAAUUCGUACCAAUAGAGAGGUUAUCGCGCUCACCGAGAUCGGAAGAGCACACGU 14.9

# Kd lookup, item target 1 MT 5'PFS ACA 3'PFS UAG (mixed) RNA 1: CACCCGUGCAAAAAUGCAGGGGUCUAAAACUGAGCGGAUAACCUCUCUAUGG RNA 2: GGGAAUGGAUCCACAUCUACGAAUUCACACCAUAGAGAGGUUAUCCGCUCAUAGAGAUCGGAAGAGCACACGU 11.2

# Kd lookup, item target 2 MT 5'PFS UUU 3'PFS UCC (mixed) RNA 1: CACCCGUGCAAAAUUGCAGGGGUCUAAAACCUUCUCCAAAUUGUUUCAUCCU RNA 2: GGGAAUGGAUCCACAUCUACGAAUUCUUUAGGAUGAAACAAUUUGGAGAAGUCCAGAUCGGAAGAGCACACGU 20.7
